test system: HOP-62 NSCLC; test: NCI-60 one-dose screen, 48 h (100 = growth as untreated, 0 = no growth, -100 = all killed); conditions: 10 µM unless noted
About 83,000 compounds went through this panel and 20% of them were active in at least one assay; those are over-represented in the sample as a whole. Activity calls are given as the source filed them. The calls were made as follows: active = growth percent below 10; inactive = the rest.
Consider the following molecules; for each one, report its growth.

[[record]]
molecule = "O=C(Nc1ccc(Cl)cc1)Nc1nc2ccc(OC(F)(F)F)cc2o1"
measurement = "114% (inactive)"

[[record]]
molecule = "CN(C)CCCN=c1cc2c(=O)n(CCCN(C)C)c(=O)c3c(NCCCN(C)C)cc4c(O)n(CCCN(C)C)c(=O)c1c4c3-2"
measurement = "-11.4% (active)"


// fetch HOP-62 NSCLC growth for Cc1c2oc3c(C)ccc(C(=O)OC(C)C4NC(=O)C(C(C)C)N(C)C(=O)CN(C)C(=O)C5CCCN5C(=O)C(C(C)C)NC4=O)c3nc-2c(C(=O)OC(C)C2NC(=O)C(C(C)C)N(C)C(=O)CN(C)C(=O)C3CCCN3C(=O)C(C(C)C)NC2=O)c(N)c1=O (stereo not drawn)
-20.4% (active)

====

Test system: KM12 colon
Test: NCI-60 one-dose screen, 48 h
Conditions: 10 µM unless noted
Procedure: Growth inhibition of the KM12 human tumor cell line is measured as a screen for anti-cancer activity. Cells are grown in 96 well plates and exposed to the test compound for 48 hours. Compounds are tested at a single concentration, which is 10^-5 M for most compounds. The reported endpoint is percent growth (GI% or GIPRCNT), where numbers from 0 - 100% represent growth inhibition, and numbers from -100% - 0 represent cell death. For example, a value of 40 represents 60% growth inhibition. […]
The panel holds about 83,000 compounds, 20% with a hit somewhere; the sample as a whole holds those more often. Active and inactive are the calls of the source. The calls were made as follows: active = growth percent below 10; inactive = the rest.
Hello, when you answer, please use one of the following outcomes: t (active), f (inactive)

Use these answered entries as a reference point.
[[record]]
compound = "c1ccc(CN=C(NCc2ccccc2)NCc2ccccc2)cc1"
qualitative_label = "f"

[[record]]
compound = "NC(=N\\N=C/Cc1ccccc1)/C(N)=N\\N=C\\Cc1ccccc1"
qualitative_label = "f"

[[record]]
compound = "COCCOCCOCCOCCOc1ccc2c(c1)C(=O)c1nc3ncccc3c(=O)n1-2"
qualitative_label = "t"

[[record]]
compound = "CC[N+](CCCCCCCCCC[N+](CC)(c1ccccn1)c1ccccn1)(c1ccccn1)c1ccccn1"
qualitative_label = "t"


What is the recorded call for this compound in the test? Cc1cc(C(=O)Nc2ccc3cc(CN4CCOCC4)ccc3n2)c(C)n1-c1ccccc1
f

What is the recorded call for this compound in the test? CC[C@@H](C)/C=C(C)/C=C/C(=O)c1c(O)c(-c2ccc(O)cc2)cn(OC2CC(=O)CCC(C)OC(=O)CC2O)c1=O (stereo not given in full)
f

What is the recorded call for this compound in the test? O=CNc1ccc2c(c1)Cc1cc([N+](=O)[O-])ccc1-2
f

What is the recorded call for this compound in the test? O=CN1N=C(c2ccc(Cl)cc2)CC1c1cccc(Nc2ccnc3cc(Cl)ccc23)c1 (stereo not given)
f

What is the recorded call for this compound in the test? O=C1c2cccc(NCCN=Cc3ccccc3O)c2C(=O)c2c(NCCN=Cc3ccccc3O)cccc21
t

What is the recorded call for this compound in the test? COc1cc(/C=C/C(=O)CC(=O)/C=C/c2ccc(OC(=O)CCNC34CC5CC(CC(C5)C3)C4)c(OC)c2)ccc1OC(=O)CCNC12CC3CC(CC(C3)C1)C2
t
